Values compiled from the supplement of paper PMC9112550.

Tested on: Escherichia coli TOP10;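 further: peptides expressed intracellularly from a pBAD plasmid library in pooled LB shake-flask culture, induced with 0.3% L-arabinose, DNA abundance read by NGS, three biological replicates, DESeq2 with apeglm shrinkage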
assay: shrunken log2 fold change of peptide-encoding DNA abundance (4.5 h post-induction vs induction); higher = less antimicrobial activity (less host growth inhibition)
condition_description: time post-induction: 4.5 h; library: site-saturation at positions 5, 18, 19, 20
readout_kind: shrunken log2 fold change
Answer as a number with no unit attached.

Some sequences with known shrunken log2 fold change results, for comparison:
>  <seq_string>
RRIRQRPPRLPRPRPRPSVDPRP

>  <shrunken log2 fold change>
-0.00902

$$$$
>  <seq_string>
RRIRGRPPRLPRPRPRPHFVPRP

>  <shrunken log2 fold change>
0.466

$$$$
>  <seq_string>
RRIRRRPPRLPRPRPRPMSRPRP

>  <shrunken log2 fold change>
-0.0357

$$$$

Looking up RRIRERPPRLPRPRPRPVTSPRP , I found its shrunken log2 fold change recorded as -0.23

Looking up RRIRKRPPRLPRPRPRPPQIPRP , I found its shrunken log2 fold change recorded as 0.661

Looking up RRIRWRPPRLPRPRPRPPPCPRP , I found its shrunken log2 fold change recorded as 0.638

Looking up RRIRMRPPRLPRPRPRPSPIPRP , I found its shrunken log2 fold change recorded as -0.106

Looking up RRIRCRPPRLPRPRPRPCQAPRP , I found its shrunken log2 fold change recorded as -0.244
